Target: Nrg2 (UniProt P38082)
Sequence: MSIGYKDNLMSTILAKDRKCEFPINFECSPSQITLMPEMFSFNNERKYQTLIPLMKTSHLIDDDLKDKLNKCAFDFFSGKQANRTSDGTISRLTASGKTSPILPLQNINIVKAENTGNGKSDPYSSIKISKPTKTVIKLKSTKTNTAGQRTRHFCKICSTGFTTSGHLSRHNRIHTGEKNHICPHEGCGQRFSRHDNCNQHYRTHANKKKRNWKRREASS
Test: PBM E-score (8-mer binding enrichment) (E-score (-0.5 to 0.5)); higher = stronger / more preferred TF binding
Details: protein concentration: 100 nM; construct: GST-full length
Whole data set: some 33,000 sequences, median “E-score (-0.5 to 0.5)” near -8e-05, cut for the highest 2% near 0.23. Shown is part of a subset that was picked to be rich in the highest values.
Think of 0.03 as a floor: if PBM E-score stands on it or above, it is 1; beneath it, 0.

Would you please look over these solved cases?
{"chain sequence": "CACTTCGA", "target desc": "Nrg2 (UniProt P38082)", "class label": 1}
{"chain sequence": "CCTAACTC", "target desc": "Nrg2 (UniProt P38082)", "class label": 0}
{"chain sequence": "GCTAACAA", "target desc": "Nrg2 (UniProt P38082)", "class label": 0}

Input: # check: PBM E-score of CAACCGCG is greater than or equal to 0.03
Output: 1

Input: # check: PBM E-score of CGAAATGA is greater than or equal to 0.03
Output: 1

Input: # check: PBM E-score of CCTTCACC is greater than or equal to 0.03
Output: 0

Input: # check: PBM E-score of AGTGTATG is greater than or equal to 0.03
Output: 1

Input: # check: PBM E-score of AATGCAAC is greater than or equal to 0.03
Output: 1

Input: # check: PBM E-score of AATCGCGA is greater than or equal to 0.03
Output: 1

Input: # check: PBM E-score of CTTAACAA is greater than or equal to 0.03
Output: 1

Input: # check: PBM E-score of ACTACTAC is greater than or equal to 0.03
Output: 1

Input: # check: PBM E-score of GTAGGTAA is greater than or equal to 0.03
Output: 0

Input: # check: PBM E-score of AAACCGCG is greater than or equal to 0.03
Output: 1

Input: # check: PBM E-score of TAATAAGA is greater than or equal to 0.03
Output: 1

Input: # check: PBM E-score of AATCGCGC is greater than or equal to 0.03
Output: 1

Input: # check: PBM E-score of AATCTCGG is greater than or equal to 0.03
Output: 0

====

The sequences listed here are annotated with their PBM E-score.
Biological target: Nrg2 (UniProt P38082)
Sequence: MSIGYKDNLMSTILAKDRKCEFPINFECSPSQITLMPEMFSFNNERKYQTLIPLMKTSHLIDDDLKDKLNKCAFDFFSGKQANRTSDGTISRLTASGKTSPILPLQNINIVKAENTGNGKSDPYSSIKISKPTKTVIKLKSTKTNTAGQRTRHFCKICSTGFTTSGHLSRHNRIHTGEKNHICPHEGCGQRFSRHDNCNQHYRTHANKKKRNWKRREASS
Assay: PBM E-score (8-mer binding enrichment) (E-score (-0.5 to 0.5)); higher = stronger / more preferred TF binding
Settings: protein concentration: 100 nM; construct: GST-full length
In all, about 33,000 sequences were measured (“E-score (-0.5 to 0.5)”: median about -8e-05, highest 2% from about 0.23 on). The sample holds the highest values, similar sequences and a random draw of the others, so the mix is not that of the screen.
Number, no unit, nothing else.

Example cases with answers are listed next.
{"chain sequence": "TGTGAGAA", "measured": 0.183}
{"chain sequence": "GACAGTGC", "measured": 0.0298}
{"chain sequence": "CTCTATAC", "measured": -0.0911}
{"chain sequence": "GGTGCAAC", "measured": -0.13}
{"chain sequence": "CTGGCCGA", "measured": -0.163}

Input: Reported PBM E-score for GCCCCAGC : what is it?
Output: 0.0519

Input: Reported PBM E-score for CTATATAC : what is it?
Output: 0.238

====

Biological target: Nrg2 (UniProt P38082)
Sequence: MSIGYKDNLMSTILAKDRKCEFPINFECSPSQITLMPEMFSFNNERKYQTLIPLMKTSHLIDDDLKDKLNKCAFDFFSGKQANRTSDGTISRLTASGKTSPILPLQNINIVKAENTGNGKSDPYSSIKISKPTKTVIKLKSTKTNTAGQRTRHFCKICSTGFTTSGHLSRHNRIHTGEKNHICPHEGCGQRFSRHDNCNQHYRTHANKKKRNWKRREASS
Experiment: PBM E-score (8-mer binding enrichment) (E-score (-0.5 to 0.5)); higher = stronger / more preferred TF binding
Details: protein concentration: 100 nM; construct: GST-full length
Over roughly 33,000 sequences, “E-score (-0.5 to 0.5)” has its median near -8e-05; the highest 2% begin near 0.23. The sample holds the highest values, similar sequences and a random draw of the others, so the mix is not that of the screen.
Think of 0.1 as a floor: if PBM E-score stands on it or above, it is satisfied; beneath it, not satisfied.

Would you please look over these solved cases?
{"chain sequence": "ATGAAGTA", "class label": "not satisfied"}
{"chain sequence": "CCGCGCTC", "class label": "not satisfied"}
{"chain sequence": "AGAGGAAC", "class label": "not satisfied"}
{"chain sequence": "CTGTAACC", "class label": "satisfied"}
{"chain sequence": "CCGCGCCC", "class label": "not satisfied"}

Read the next record carefully.
Input: # check: PBM E-score of GGGCGCCC is greater than or equal to 0.1
Output: satisfied

====

The sequences listed here are annotated with their PBM E-score.
Target: Nrg2 (UniProt P38082)
Sequence: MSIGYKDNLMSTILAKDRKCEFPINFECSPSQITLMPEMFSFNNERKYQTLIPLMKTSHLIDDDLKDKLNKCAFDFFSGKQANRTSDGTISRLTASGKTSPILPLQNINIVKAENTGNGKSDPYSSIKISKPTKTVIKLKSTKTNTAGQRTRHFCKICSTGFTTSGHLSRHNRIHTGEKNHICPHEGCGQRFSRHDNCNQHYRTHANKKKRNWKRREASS
Assay: PBM E-score (8-mer binding enrichment) (E-score (-0.5 to 0.5)); higher = stronger / more preferred TF binding
Settings: protein concentration: 100 nM; construct: GST-full length
Whole data set: some 33,000 sequences, median “E-score (-0.5 to 0.5)” near -8e-05, cut for the highest 2% near 0.23. Only a selection was taken, and the highest values are over-represented in it overall.

Input: Reported PBM E-score for ATTGTTTC : what is it?
Output: 0.256

Input: Reported PBM E-score for ACAGTTTA : what is it?
Output: -0.0808

Input: Reported PBM E-score for ATATGGCC : what is it?
Output: -0.0218

Input: Reported PBM E-score for AAGGGTCC : what is it?
Output: 0.439

Input: Reported PBM E-score for CTTGTTTC : what is it?
Output: 0.0127

====

The sequences listed here are annotated with their PBM E-score.
Target: Nrg2 (UniProt P38082)
Sequence: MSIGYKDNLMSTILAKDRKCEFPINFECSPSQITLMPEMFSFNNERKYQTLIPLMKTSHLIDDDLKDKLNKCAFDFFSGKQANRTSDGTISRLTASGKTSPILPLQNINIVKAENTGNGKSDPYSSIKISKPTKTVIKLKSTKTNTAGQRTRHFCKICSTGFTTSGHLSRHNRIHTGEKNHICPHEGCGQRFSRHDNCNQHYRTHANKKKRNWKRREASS
Experiment: PBM E-score (8-mer binding enrichment) (E-score (-0.5 to 0.5)); higher = stronger / more preferred TF binding
Details: protein concentration: 100 nM; construct: GST-full length
Over roughly 33,000 sequences, “E-score (-0.5 to 0.5)” has its median near -8e-05; the highest 2% begin near 0.23. This is one part of a sample in which the highest values are shown more often than they occur.
Number, no unit, nothing else.

{"chain sequence": "AGTAGATC", "measured": -0.0113}
{"chain sequence": "GGATAACC", "measured": -0.141}
{"chain sequence": "AAAGGGTC", "measured": 0.318}
{"chain sequence": "CAAGGGAA", "measured": 0.0785}

Input: Reported PBM E-score for AGTATAAT : what is it?
Output: 0.257

Input: Reported PBM E-score for CAGTATCA : what is it?
Output: -0.0774

Input: Reported PBM E-score for AGTATATC : what is it?
Output: 0.107

Input: Reported PBM E-score for GAGTATCA : what is it?
Output: 0.00367

Input: Reported PBM E-score for ACTATATC : what is it?
Output: 0.182

Input: Reported PBM E-score for AAAGGGTG : what is it?
Output: 0.00635

Input: Reported PBM E-score for ACCCGCGT : what is it?
Output: -0.119

Input: Reported PBM E-score for CCCCGCGG : what is it?
Output: 0.0578

Input: Reported PBM E-score for ACCCGCGC : what is it?
Output: 0.229

Input: Reported PBM E-score for ACTATATA : what is it?
Output: 0.23

Input: Reported PBM E-score for AGTATAAC : what is it?
Output: -0.131

Input: Reported PBM E-score for AAGGGGTC : what is it?
Output: 0.239

Input: Reported PBM E-score for ACCAAGTC : what is it?
Output: 0.111

Input: Reported PBM E-score for ACACGTCC : what is it?
Output: -0.254

Input: Reported PBM E-score for ATGGGGTC : what is it?
Output: 0.299
